Origin of values: patent EP4361176A1

Items are presented alongside their recorded Binding to Human CTLA4.
- Target system: T1, human CTLA4 (soluble analyte of the Biacore assays of Reference Example 3-3) (human, UniProt P16410 36-161)
- T1 construct: also called hCTLA4
- T1 sequence: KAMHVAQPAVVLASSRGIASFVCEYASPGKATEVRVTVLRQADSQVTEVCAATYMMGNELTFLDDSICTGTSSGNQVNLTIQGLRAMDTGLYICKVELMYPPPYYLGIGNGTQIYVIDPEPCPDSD
- Measurement protocol: SPR, 1000 nM CTLA4, per unit antibody, ATP 1 uM
Property: Binding to Human CTLA4

[
  {
    "Binder": "04H1077-G1m/04L1066-lam1 (antibody, human IgG1, lambda, V domains shown) VH: EVQLVESGGDLVKPGGGLRLSCAASGFTFSSRTMNWVRQAPGKGLEWVSSISTRSGYIYYAESVKGRFTISRDNAKNSLYLQMNSLRAEDTAVYYCARYGKREDMLWVFDYWGQGTLVTVSS VL: QSALTQPPSASGSPGQTVTISCDGPSTDVGDYNWVHWYQQHPGKAPKLMIYFTSKKPSGVPDRFSGSKSGNTASLTVSGLQAEDEADYFCSTYAAPLGPMFGGGTKLTVLG",
    "Test value": 0.057
  },
  {
    "Binder": "04H1077-G1m/04L1067-lam1 (antibody, human IgG1, lambda, V domains shown) VH: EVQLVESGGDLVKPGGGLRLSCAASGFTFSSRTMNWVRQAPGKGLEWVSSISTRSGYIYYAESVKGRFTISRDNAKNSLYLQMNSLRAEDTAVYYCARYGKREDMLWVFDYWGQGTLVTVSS VL: QSALTQPPSASGSPGQTVTISCDGPSTGVGDYNYVHWYQQHPGKAPKLMIYFTSKKPSGVPDRFSGSKSGNTASLTVSGLQAEDEADYFCSTYAAPLGPMFGGGTKLTVLG",
    "Test value": 0.041
  },
  {
    "Binder": "04H1077-G1m/04L1086-lam1 (antibody, human IgG1, lambda, V domains shown) VH: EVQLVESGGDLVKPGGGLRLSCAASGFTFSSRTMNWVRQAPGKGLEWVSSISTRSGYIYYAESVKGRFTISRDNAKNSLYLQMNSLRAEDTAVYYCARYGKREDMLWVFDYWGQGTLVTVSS VL: QSALTQPPSASGSPGQTVTISCDGPSTGVGDYNYVHWYQQHPGKAPKLMIYFTSKKPSGVPDRFSGSKSGNTASLTVSGLQAEDEADYFCQTYAAPLGPMFGGGTKLTVLG",
    "Test value": 0.031
  }
]
